Listing: z-score of selected compounds
- experiment: basal 3T3-L1 adipocyte mitochondrial potential changes, profiling panel, cell-based, JC-1 fluorescence, 3T3-L1 adipocytes, 24 h, 100 nL compound (AID 1168); note: test concentration not given here
- run_conditions: JC-1 mitochondrial fluorescence, higher = more signal, called active from +8 up or from −8 down

>  <compound>
COc1cc(OC)c(C(O)C2C=CC3C(=O)N(c4ccccc4)C(=O)C3N2Nc2ccc(C#N)cc2)cc1Br (stereo not drawn)

>  <z-score>
-0.403

$$$$
>  <compound>
NCCCCCCNC(=O)[C@@H]1C[C@@H]2C(=O)N3CCC[C@H]3C(=O)N2[C@@H]1c1ccc(O)cc1

>  <z-score>
-0.202

$$$$
>  <compound>
O=C(NC1CC1)[C@@H]1c2ccccc2C(=O)N(Cc2ccccc2)[C@H]1c1ccc(CO)cc1

>  <z-score>
1.07

$$$$
>  <compound>
O=C1C[C@]2(c3ccc([N+](=O)[O-])cc3)C(=O)N(Cc3ccccc3)c3cc(CO)ccc3[C@H]2N1CC12CC3CC(CC(C3)C1)C2

>  <z-score>
0.286

$$$$
>  <compound>
COC(=O)[C@@]1(Cc2ccc(OC)cc2)[C@H]2c3cc(C(=O)N(C)C)n(Cc4ccccc4)c3C[C@H]2CN1C(=O)c1ccccc1

>  <z-score>
-0.45

$$$$
>  <compound>
NC(=O)N1C(=O)C2C(C1=O)C1C=C(c3ccc(CO)cc3)C2C(C2CC2)N1Cc1sc2ccccc2c1Cl (stereo not drawn)

>  <z-score>
0.189

$$$$
>  <compound>
NC(=O)N1C(=O)C2C(C1=O)C1C=C(CCCO)C2C(c2cccs2)N1Cc1cc2c(cc1Br)OCO2 (stereo not drawn)

>  <z-score>
0.111

$$$$
>  <compound>
C=CC[C@]1(C(=O)N(C)C)N=C(c2ccc(OCCCO)cc2)O[C@H]1c1ccccc1N=[N+]=[N-]

>  <z-score>
0.0159

$$$$
